# MEASURED ON: Adenosine receptor A2a (Homo sapiens)
# Sequence (P29274 whole entry): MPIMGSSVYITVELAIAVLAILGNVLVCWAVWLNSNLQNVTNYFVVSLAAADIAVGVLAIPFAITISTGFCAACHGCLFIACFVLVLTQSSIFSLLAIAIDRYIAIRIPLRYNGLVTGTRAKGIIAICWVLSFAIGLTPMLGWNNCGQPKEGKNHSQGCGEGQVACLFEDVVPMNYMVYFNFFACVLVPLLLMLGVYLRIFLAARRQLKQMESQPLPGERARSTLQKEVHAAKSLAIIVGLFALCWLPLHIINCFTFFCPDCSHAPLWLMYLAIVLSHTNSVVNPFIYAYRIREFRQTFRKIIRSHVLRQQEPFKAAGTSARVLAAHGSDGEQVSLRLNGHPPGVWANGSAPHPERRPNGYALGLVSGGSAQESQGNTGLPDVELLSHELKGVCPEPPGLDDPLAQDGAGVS
# MEASUREMENT DESCRIPTION: Displacement of [3H]ZM241385 from human adenosine A2A receptor expressed in HEK293 cells after 1 hr by liquid scintillation counting
# Type: cell-based
# MEASUREMENT PARAMETERS: read-out: pKi (converted)
ENDPOINT LABEL: Ki (nM)

| SMILES ENTRY | ENDPOINT LABEL | READOUT NUMBER |
| --- | --- | --- |
| CCCCCc1cc2c(=O)c(-c3nc(C)cs3)coc2cc1O | Ki | 20 |
| CC(=O)Oc1cc(C)c2c(=O)c(-c3nc(C)cs3)coc2c1 | Ki | 31.6 |
| Cc1csc(-c2coc3cc(OCC(=O)O)cc(C)c3c2=O)n1 | Ki | 2000 |

[1] CCc1cc2c(=O)c(-c3cscn3)coc2cc1O
[2] CCc1cc2c(=O)c(-c3nc(C)cs3)coc2cc1O
Lookup: Between 1 and 2 , which one shows the smaller Ki number? // caller expects the label of the chosen entry
Found: 2
